# target of assay: hDASPO (hDASPO_341), human D-aspartate oxidase (Homo sapiens, UniProt Q99489)
# Construct: full-length canonical isoform, 341 residues; His-tagged (pET11-His-hDASPO), E. coli BL21(DE3) LOBSTR, HiTrap chelating
# Sequence (Q99489 whole entry, canonical isoform): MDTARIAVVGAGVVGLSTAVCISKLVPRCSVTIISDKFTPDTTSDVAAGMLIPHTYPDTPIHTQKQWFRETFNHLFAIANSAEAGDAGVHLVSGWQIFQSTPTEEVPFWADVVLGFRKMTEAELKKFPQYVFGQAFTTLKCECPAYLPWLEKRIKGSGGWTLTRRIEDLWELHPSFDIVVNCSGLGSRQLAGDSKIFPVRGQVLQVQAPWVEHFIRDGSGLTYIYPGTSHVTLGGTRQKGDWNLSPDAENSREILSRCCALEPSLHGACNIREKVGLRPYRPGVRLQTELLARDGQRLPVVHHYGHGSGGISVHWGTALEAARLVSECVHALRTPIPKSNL
# experimental details: quenching of apoprotein tryptophan fluorescence (~[…] nm), titration
measure name: Kd
Write the figure, then the unit, nothing else.

Incoming: Returns the measured Kd for the input compound. Input: `Cc1cc2nc3c(=O)[nH]c(=O)nc-3n(C[C@H](O)[C@H](O)[C@H](O)COP(=O)(O)OP(=O)(O)OC[C@H]3O[C@@H](n4cnc5c(N)ncnc54)[C@H](O)[C@@H]3O)c2cc1C`
Outgoing: 16 nM
